Can you tell me logD for the items I'm about to list?
# protocol: method code SF-AS, from PMID: 10944786
# experimental-conditions: pH 7.0
Simply state the number, no unit and no words.

Which logD is reported for this compound? CCCOc1ccccc1NC(=O)OCN1CCCCC1
2.33

Name the reported logD value associated with the compound CCCOc1ccc(NC(=O)OCN2CCCCC2)cc1
2.42

Fill blank: measured logD of the compound CCCCOc1ccc(NC(=O)OCN2CCCCC2)cc1 is ____.
3.04

# get_value(readout='logD', item= CCCCOc1ccccc1NC(=O)OCN1CCCCC1 )
2.39

Which measured logD value corresponds to CCCOc1cccc(NC(=O)OCN2CCCCC2)c1 ?
2.6

* * *

Please go through the items and note down their logP.
Format: numeric value only, no unit, no commentary.

Need logP of ClC1=C(Cl)C2(Cl)C3C4OC4C(Cl)C3C1(Cl)C2(Cl)Cl (configuration not stated) , thanks.
5.4

Give the measured logP of c1ccc(Nc2ccc3ccccc3c2)cc1 .
4.38

* * *

reported-property: logP
Would you mind answering with just the numeric figure?

Quick check: logP of c1ccc2c3c(ccc2c1)-c1cccc2cccc-3c12 ?
6.04

* * *

# protocol: from Wadhwa, L.; Chandiran, S.; Sharma, P. (2004). Alkyl esters of 6-methoxy-2-naphthylacetic acid as potential prodrugs - Synthesis, physicochemical properties, chemical stability and enzymatic …
# experimental-conditions: pH 7.4
reported-property: logD
Reply briefly: the number, and no unit.

Entry under review: CCCOC(=O)Cc1ccc2cc(OC)ccc2c1 . Reported logD?
4.14

Suppose we examine the molecule COc1ccc2cc(CC(=O)OC(C)C)ccc2c1 ; what logD value has been reported?
4

Report logD for CCOC(=O)Cc1ccc2cc(OC)ccc2c1 please.
3.04

Please look up its logD: COc1ccc2cc(CC(=O)OCC(C)C)ccc2c1
4.71

* * *

reported-property: logP
API note: the answer field is a bare number with no unit suffix.

What does the data say about its logP? Entry: O=[N+]([O-])c1ccc2cccccc1-2
2.59

logP lookup needed for NC(=O)Cc1ccc2cccccc1-2 , thanks.
2.48

What value of logP has been reported for the following compound? CCOC(=O)c1ccc2cccccc1-2
3.83

* * *

Can you tell me logP for the items I'm about to list?
# protocol: method code SF-GLC, from DOI: 10.1016/0045-6535(83)90264-3
Please state the value as a number alone, without comment.

Could you share which logP value was measured for CSc1nc2ccccc2s1 ?
3.15

May I ask what logP has been recorded for O=C(O)c1c(C(=O)O)c(C(=O)O)c(C(=O)O)c(C(=O)O)c1C(=O)O ?
-1.45

* * *

What logP was measured for each of the following?

Need logP, item O=S(=O)(Nc1cc(Cl)c(Cl)cc1Cl)c1c(O)c(Cl)cc(Cl)c1Cl
4.36

Query (compound): O=S(=O)(Nc1ccccc1Cl)c1c(O)c(Cl)cc(Cl)c1Cl ; field requested: logP
3.97

For O=S(=O)(Nc1ccc(O)cc1)c1cc(Cl)cc(Cl)c1Cl , what is its reported logP?
4.18

Look up logP: O=S(=O)(Nc1cc(Cl)c(Cl)cc1Cl)c1cc(Cl)cc(Cl)c1O
4.32

* * *

# protocol: method code SF-AS, from DOI: 10.1016/j.ejmech.2003.11.003, PMID: 14987836
reported-property: logP

// returns reported logP for input COC(=O)[C@@H]1CCCN1S(=O)(=O)N(CCCl)N=O
-0.19

Sample O=NN(CCCl)S(=O)(=O)N1CCCCC1 — what was its logP?
1.03

* * *

# protocol: method code SF-AS, from DOI: 10.1002/jps.2600720808, PMID: 6620139
Please respond with reported logP for every item in the list.
Just the number, please, no unit after it.

Data request, read-out logP, for CCCCC[C@](C)(O)/C=C/C1[C@H](O)C[C@H](O)[C@@H]1C/C=C\CCCC(=O)OC (some centres not stated)
3.21

Please give the measured logP for this compound: CCCCC[C@H](O)/C=C/[C@@H]1[C@@H](C/C=C\CCCC(=O)O)[C@@H](O)C[C@H]1O
2.72

* * *

reported-property: logP
Give the figure only, with no unit attached.

Please look up its logP: Cn1cc[nH]c1=S
-0.22

* * *

Could you please report measured logP for the items listed next?
# protocol: method code SF-AS, from DOI: 10.1016/s0045-6535(98)00368-3
The response must contain the number and no unit.

Recorded logP for COC(=O)c1ccccc1S(N)(=O)=O , please?
0.01

Which logP is listed for NS(=O)(=O)c1ccccc1Cl ?
0.79

Item COC(=O)c1ccccc1CS(N)(=O)=O has what recorded logP?
0.37

* * *

reported-property: logP
Lab note: record just the number, no unit beside it.

Data request, read-out logP, for CC(=O)Oc1c(C)cc(OCC(O)CNC(C)C)c(C)c1C (stereo unspecified)
1.95

* * *

reported-property: logP
Lab note: jot the number down without any unit.

Dear colleague, I am looking for the recorded logP of the following molecule: COP(=S)(OC)Oc1cc(Cl)c(Cl)cc1Cl
4.67

* * *

# protocol: method code SF, from DOI: 10.1038/248065a0, PMID: 4150456
# experimental-conditions: pH 9.0
reported-property: logD
Output spec: single numeric token, no unit.

Report logD for CNC(=S)NCCSCc1c[nH]cn1 please.
0.16

* * *

# protocol: method code SF-RC, from DOI: 10.17863/cam.48378, PMID: 23133799
# experimental-conditions: pH 7.4
reported-property: logD
Give your answer as a number; write no unit.

What does the data say about its logD? Entry: FCCOCCON=C1C=C(C#Cc2ccccn2)CCC1
1.9

* * *

# protocol: method code SF, from Zhang, H, Oberg. B.; Liu, X.; Fan, Z.; Jia, J.; et, a. (2008). Octanol/water partition coefficient determination of novel fungicide SYP-3343 by flask-shaking method using HPLC. Journal of Safety and …
# experimental-conditions: pH 5.0
reported-property: logD
Could you respond with only the numeric value?

Any idea what logD was measured for CO/C=C(/C(=O)OC)c1ccccc1COc1cc(C)nn1-c1ccc(Cl)cc1 ?
4.37

* * *

reported-property: logP
A bare number is all that is needed in reply.

Quick one: logP for Clc1cc(Cl)c2[nH]c3c(Cl)cc(Cl)cc3c2c1 ?
5.75

// returns reported logP for input Clc1cc2c(cc1Cl)Oc1c(Cl)c(Cl)c(Cl)c(Cl)c1O2
7.79

# logP lookup, item Clc1cc2c(cc1Cl)=c1cc(Cl)c(Cl)cc1=2
6.14

* * *

# protocol: method code SF, from DOI: 10.1021/bk-1995-0606.ch003
reported-property: logP
The answer should be written as a number, with no unit following it.

# query: logP of entry CCc1ccc[nH]1
1.59

* * *

reported-property: logP
Reply with just the number.

Any idea what logP was measured for Nc1ccc([N+](=O)[O-])c2ccccc12 ?
1.77

* * *

# protocol: method code SF-AS, from DOI: 10.1016/s0045-6535(00)00181-8, PMID: 11272912
reported-property: logP
Reply briefly: the number, and no unit.

Give its logP value. Item: O=Cc1cc(Br)ccc1O
2.5

* * *

# protocol: method code SF-HPLC, from PMID: 2780588
reported-property: logP
When you answer, write just the number.

I have this molecule here, CCCCCCCCC(=O)NCc1cccc(OC)c1 , and I need its recorded logP.
3.31

Sample COc1cc(CNC(=O)CCCC/C=C/C(C)C)ccc1O — what was its logP?
3.04

Report logP for CCCCCCCCC(=O)NCc1ccc(O)c(OC)c1 please.
2.96

Fill in: logP of CCCCCCCCCCCNC(=O)Cc1ccc(O)c(OC)c1 is ___
3.74

Consider the molecule shown here: CCCCCNC(=O)Cc1ccc(O)c(OC)c1 What is its recorded logP?
1.67

* * *

reported-property: logP
Form field (numeric): enter value without unit.

Which measured logP value corresponds to Nc1cc(N=O)ccc1O ?
0.03

* * *

# protocol: method code SF-AS, from PMID: 582409
# experimental-conditions: pH 7.4
reported-property: logD
// keep it numeric: no unit symbol after the value

If you can, please state the reported logD value of Nc1nc(N)c2nc(-c3ccc(O)cc3)c(N)nc2n1 .
0.92

* * *

reported-property: logP
Keep the answer to the number alone.

Can you look up the measured logP of OC(Cn1cncn1)(Cn1cncn1)c1ccc(Cl)cc1Cl for me?
1.1

* * *

# protocol: method code SF-AS, from DOI: 10.1021/bi00405a042
reported-property: logP
Answer using only a numeral; do not append any unit.

So what's the measured logP for this one? CC(=O)NCCc1c[nH]c2ccccc12
1.41

Requested read-out: logP. Entry: CC(=O)NCCc1ccccc1
1.19

* * *

reported-property: logP
Reply with the value as a number alone.

Sample O=C(NC12CC3CC(CC(C3)C1)C2)C(O)c1ccccc1 (stereo unspecified) — what was its logP?
3.09

* * *

reported-property: logP

What value of logP has been recorded for this entry: CNC(=O)N(C)c1nnc(C(F)(F)F)s1
1.46
